The origin of these recorded values is patent US20240124503A1.

pIC50 values by entry
Test system: LU-01-0010
Assay: Cell viability, lung PDX LU-01-0010
Type: cell-based
Lab note — pIC50 values are minus log10 of concentrations in M.

{"columns": ["COMPOUND", "TEST_TARGET", "pIC50"],
 "data": [
  ["O=c1cc(-c2ccc(CCC[P+](c3ccccc3)(c3ccccc3)c3ccccc3)cc2)oc2c(O)c(O)ccc12 [SND200]", "LU-01-0010", 5.00]
]}

Moving on to the next compound.
pIC50 measured on COc1c(O)ccc2c(=O)c(O)c(-c3ccc(CCCC[P+](c4ccccc4)(c4ccccc4)c4ccccc4)cc3)oc12 [SND190] = 5.96
